# System: Staphylococcus epidermidis
# PROTOCOL_DESCRIPTION: In Vitro Anti Bacterial Activity (MIC90) against 90% of tested clinical Isolates of Staphylococcus epidermidis (13)
# Type: functional
READOUT_NAME: MIC90
A complete answer gives the number followed by the unit.

C[C@@H](O)[C@H]1C(=O)N2C(C(=O)O)=C(CN3CCC[C@H]3C(N)=O)S[C@H]12 : 0.12 µg/mL
C[C@@H](O)[C@H]1C(=O)N2C(C(=O)O)=C(CN(C)[C@@H](C)C(N)=O)S[C@H]12 : 0.25 µg/mL
C[C@@H](O)[C@H]1C(=O)N2C(C(=O)O)=C(CN3CCC[C@@H]3C(N)=O)S[C@H]12 : 0.12 µg/mL
C[C@@H](O)[C@H]1C(=O)N2C(C(=O)O)=C(CN3C[C@H](O)C[C@H]3C(N)=O)S[C@H]12 : 1 µg/mL

Challenge: I am curious: what MIC90 value has been reported for C[C@@H](O)[C@H]1C(=O)N2C(C(=O)O)=C(CN(C)CC(N)=O)S[C@H]12 ?
Response given: 0.015 µg/mL

---

Parameter MIC: see the listing below.
# Tested on: Staphylococcus aureus
# PROTOCOL_DESCRIPTION: In vitro antibacterial activity against Sa MR(I) heterogeneous methicillin resistant Staphylococcus aureus
# Assay type: functional
# unit: µg/mL | format: bare number

Answered examples (2):
C[C@@H](O)[C@H]1C(=O)N2C(C(=O)O)=C(CN(C)CC(N)=O)S[C@H]12 : 0.06
C[C@@H](O)[C@H]1C(=O)N2C(C(=O)O)=C(COC(N)=O)S[C@H]12 [RITIPENEM] : 0.12

Then this molecule:
Challenge: I am curious: what MIC value has been reported for C[C@@H](O)[C@H]1C(=O)N2C(C(=O)O)=C(CN3C[C@@H](O)C[C@H]3C(N)=O)S[C@H]12 ?
Response given: 0.25

---

Parameter MIC: see the listing below.
# Tested on: Escherichia coli
# PROTOCOL_DESCRIPTION: In Vitro antibacterial activity against (Ec L) Escherichia coli […] strain
# Assay type: functional
# unit: µg/mL | format: bare number

C[C@@H](O)[C@H]1C(=O)N2C(C(=O)O)=C(CN3CCC(C(N)=O)CC3)S[C@H]12 : 2
C[C@@H](O)[C@H]1C(=O)N2C(C(=O)O)=C(CN3C[C@H](O)C[C@@H]3C(N)=O)S[C@H]12 : 2
C[C@@H](O)[C@H]1C(=O)N2C(C(=O)O)=C(CN3CCC[C@@H]3C(N)=O)S[C@H]12 : 1

Challenge: I am curious: what MIC value has been reported for C[C@@H](O)[C@H]1C(=O)N2C(C(=O)O)=C(CN(C)CC(=O)N3CCN(C)CC3)S[C@H]12 ?
Response given: 1

---

# Test system: Pseudomonas aeruginosa
# PROTOCOL_DESCRIPTION: In Vitro antibacterial activity against (Pa) hyperpermeable Pseudomonas aeruginosa […] strain
# Type: functional
READOUT_NAME: MIC (µg/mL)
# unit: µg/mL | format: bare number

Answered examples (3):
C[C@@H](O)[C@H]1C(=O)N2C(C(=O)O)=C(CN(C)CC(=O)NCC(N)=O)S[C@H]12 : 1
C[C@@H](O)[C@H]1C(=O)N2C(C(=O)O)=C(CN3CCC(C(N)=O)CC3)S[C@H]12 : 1
C[C@@H](O)[C@H]1C(=O)N2C(C(=O)O)=C(CN3CCC[C@H]3C(N)=O)S[C@H]12 : 1

Then this molecule:
Challenge: I am curious: what MIC value has been reported for C[C@@H](O)[C@H]1C(=O)N2C(C(=O)O)=C(CN(C)[C@@H](C)C(N)=O)S[C@H]12 ?
Response given: 1
